# experimental system: human VEGF-A 165 (human, UniProt P15692-4 27-191)
# Sequence (P15692 other isoform, or with tags, fused parts or gaps limits assumed): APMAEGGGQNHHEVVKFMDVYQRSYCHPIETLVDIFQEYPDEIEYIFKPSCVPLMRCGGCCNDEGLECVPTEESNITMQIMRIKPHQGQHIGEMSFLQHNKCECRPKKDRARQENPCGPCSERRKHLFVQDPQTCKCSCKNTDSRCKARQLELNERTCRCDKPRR
# procedure text: SPR
property name: Kd (nM)

In [3]: df
Out[3]:
                                     binder  number
0  GCDVMQPYWGCGPDIDCLAGCVCHWYNSCG (designed binder, also called L2.9.63.12) [VEGF_CKP9.63.12]    4.32
1  GCDVMQPYWGCKQDSDCLAGCVCHWYNSCG (designed binder, also called EM63) [VEGF_CKP9.63]     382
2  GCNIMLPFWGCGRDFECLAGCVCQYYQSCG (designed binder) [VEGF_CKP9.54.90]    0.89
3  GCNIMLPFWGCKQDSDCLAGCVCQYYQSCG (designed binder, also called EM54) [VEGF_CKP9.54]     190
